target: A/M2TM (22-46) (Influenza A virus, UniProt P0DOF5)
Sequence (P0DOF5 22-46 limits assumed): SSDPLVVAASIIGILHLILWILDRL
procedure-text: biochemical
Format: binding
test-conditions: read-out: Kd
reported-property: Kd (µM)
One number for each entry, in µM.

The reported value for C1CCC2(CC1)CCNCC2 [Compound 20, 3-Aza-spiro[5.5]undecane, reference compound] in terms of Kd is 12.9

----------
target: A/M2 channels (Influenza virus A/Udorn/72 A/M2 protein) (Influenza A virus, UniProt P0DOF5)
Sequence (P0DOF5 whole entry, looked up): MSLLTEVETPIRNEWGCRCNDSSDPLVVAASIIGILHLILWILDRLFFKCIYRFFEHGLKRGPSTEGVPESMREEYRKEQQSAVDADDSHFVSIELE
procedure-text: cell-based
test-conditions: read-out: AM2 channel activity after 100 μM compound inhibition
Please provide measured activity at 100 µM for the entries that follow.

compound | activity at 100 µM
NC12CC3CC(CC(C3)C1)C2 [Amantadine, reference compound] | 6%
OC1(c2cnc[nH]2)CCC2(CCCCC2)CC1 | 40%
C1CCC2(CC1)CCNCC2 [Compound 20, 3-Aza-spiro[5.5]undecane, reference compound] | 5%
NCCNC1CCC2(CCCCC2)CC1 | 100%
OC(c1c[nH]cn1)C1CCC2(CCCCC2)CC1 (stereo not drawn) | 30%
NCCCNC1CCC2(CCCCC2)CC1 | 100%
c1nc(NC2CCC3(CCCCC3)CC2)n[nH]1 | 25%
C1CCC2(CC1)CCN(C1=NCCN1)CC2 [BL-1743, reference compound] | 25%

// field: activity at 100 µM; key: `c1nc(CNCCNC2CCC3(CCCCC3)CC2)c[nH]1` ; value = 91%

----------
target: A/M2TM (22-46) (Influenza A virus, UniProt P0DOF5)
procedure-text: biochemical
Assay type: binding
reported-property: Kd (µM)
Give bare numbers, in µM.

For record C1CCC2(CC1)CCN(C1=NCCN1)CC2 [BL-1743, reference compound] the listed Kd is 194

Reference for the values: patent US9464075B2
